test system: UACC-257 melanoma; experiment: NCI tumour cell line growth inhibition, 48 h
MEASURED_PROPERTY: TGI

Some solved entries appear below for comparison.
1) COc1cc(-c2nc3nc(N4CCN(C)CC4)ccc3[nH]2)c(OC)c2[nH]c(COC(C)=O)nc12 = 61.4 µM
2) O=C1O[C@]2(c3ccccc3)C(c3ccccc3)=C[C@]2(C(=O)c2ccccc2)C1=O = > 100 µM
3) CC1CC2(CCC1OCc1ccccc1)OCCO2 (configuration not stated) = > 100 µM
4) COc1ccccc1NC(=O)CC(=O)NNCC(=O)Nc1nnc(-c2ccccc2)o1 = > 100 µM
5) Cc1nnc2sc(N/N=C/c3ccccc3)nn12 = > 100 µM
6) CC(C)(C)c1cc(C2COC(=O)COCC(=O)OCCOCCOCCO2)cc(C(C)(C)C)c1O (configuration not stated) = > 100 µM
7) CC(C)C(C/C=C1\CC(CO)(COC(=O)CC(C(C)C)C(C)C)OC1=O)C(C)C (configuration not stated) = 29.5 µM
8) O=[N+]([O-])c1cccc(-c2cc(-c3cc(Br)ccc3O)[nH]n2)c1 = 6.49 µM

Query: Recorded TGI for `CN(C)CCn1c(=O)c2ccc3c4c(nn3CCN(C)C)c3ccccc3n(c1=O)c24` with UACC-257 melanoma, please?
Response: 3.24 µM

Query: # iterate: `C/C(N=Nc1nc2ccccc2o1)=C1/C=CC=CN1O`
Response: > 100 µM

Query: # iterate: Nc1nc2cc(CNc3ccc(C(=O)NC(CCC(=O)O)C(=O)O)cc3)ccc2nc1-c1ccccc1 (configuration not stated)
Response: > 10 µM

Query: # iterate: CC1=CC2CC(C)C1(C)CCc1ccoc12 (configuration not stated)
Response: > 100 µM
